assay: Rat PK, cassette dosing, IV and PO; format: in vivo; conditions: plasma, 1 mg/kg; Table 1, titled Intravenous (IV) Administration in Rat; Mean (SE)
# half-life values compiled below
Unit h implied. Number only.

*Q* Report half-life for Cc1noc(C)c1-c1cnc2c(-c3ccc(C(=O)O)cc3)cn(C(C)(c3ccccn3)c3ccccn3)c2c1 please.
*A* 4.13

The record that follows has no half-life shown yet.
*Q* Report half-life for Cc1noc(C)c1-c1cnc2c(-c3ccc(C(=O)O)cc3)cn(C(c3ccccn3)c3ccccn3)c2c1 [Compound Z, reference compound] please.
*A* 1.31

====

# AUC values compiled below
test: Rat PK, cassette dosing, IV and PO; format: in vivo; details: plasma, 2 mg/kg; Table 2, titled Peroral (PO) Administration in Rat; Mean (SE)
Unit ng·h/mL implied. Number only.

*Q* Report AUC for Cc1noc(C)c1-c1cnc2c(-c3ccc(C(=O)O)cc3)cn(C(C)(c3ccccn3)c3ccccn3)c2c1 please.
*A* 7670

The record that follows has no AUC shown yet.
*Q* Report AUC for Cc1noc(C)c1-c1cnc2c(-c3ccc(C(=O)O)cc3)cn(C(c3ccccn3)c3ccccn3)c2c1 [Compound Z, reference compound] please.
*A* 125

====

# Cmax values compiled below
Experiment: Rat PK, cassette dosing, IV and PO
Type: in vivo
Details: plasma, 1 mg/kg; Table 1, titled Intravenous (IV) Administration in Rat; Mean (SE)
Experimental: Rat PK data was determined using a cassette dosing format with 5 compounds administered to each of three rats for IV and three rats for PO. The IV dose was 1 mg/kg for each compound in 8.75% solutol, 8.75% ethanol, 12.5% DMSO and 70% water by volume. […] Plasma drug concentrations were determined by LC/MS/MS after standard curve calibration for each test article. Dosing solutions were also analyzed for test article and used to calculate the administered dose. […]
Unit ng/mL implied. Number only.

*Q* Report Cmax for Cc1noc(C)c1-c1cnc2c(-c3ccc(C(=O)O)cc3)cn(C(C)(c3ccccn3)c3ccccn3)c2c1 please.
*A* 1210

Further cases:
*Q* Report Cmax for Cc1noc(C)c1-c1cnc2c(-c3ccc(C(=O)O)cc3)cn(C(c3ccccn3)c3ccccn3)c2c1 [Compound Z, reference compound] please.
*A* 80

====

# Tmax values compiled below
Test: Rat PK, cassette dosing, IV and PO
Format: in vivo
Conditions: plasma, 1 mg/kg; Table 1, titled Intravenous (IV) Administration in Rat; Mean (SE)
Protocol: Rat PK data was determined using a cassette dosing format with 5 compounds administered to each of three rats for IV and three rats for PO. The IV dose was 1 mg/kg for each compound in 8.75% solutol, 8.75% ethanol, 12.5% DMSO and 70% water by volume. […] Plasma drug concentrations were determined by LC/MS/MS after standard curve calibration for each test article. Dosing solutions were also analyzed for test article and used to calculate the administered dose. […]
Unit min implied. Number only.

*Q* Report Tmax for Cc1noc(C)c1-c1cnc2c(-c3ccc(C(=O)O)cc3)cn(C(c3ccccn3)c3ccccn3)c2c1 [Compound Z, reference compound] please.
*A* 30

The record that follows has no Tmax shown yet.
*Q* Report Tmax for Cc1noc(C)c1-c1cnc2c(-c3ccc(C(=O)O)cc3)cn(C(C)(c3ccccn3)c3ccccn3)c2c1 please.
*A* 40.2

====

experiment: Rat PK, cassette dosing, IV and PO; type: in vivo; conditions: plasma, 2 mg/kg; Table 2, titled Peroral (PO) Administration in Rat; bioavailability
Outcome Measure: bioavailability (%)
Unit % implied. Number only.

*Q* Report bioavailability for Cc1noc(C)c1-c1cnc2c(-c3ccc(C(=O)O)cc3)cn(C(c3ccccn3)c3ccccn3)c2c1 [Compound Z, reference compound] please.
*A* 17

Further cases:
*Q* Report bioavailability for Cc1noc(C)c1-c1cnc2c(-c3ccc(C(=O)O)cc3)cn(C(C)(c3ccccn3)c3ccccn3)c2c1 please.
*A* 103
